experimental_target: acetylcholinesterase (AChE, electric eel) (Electrophorus electricus)
Sequence (O42275 24-633): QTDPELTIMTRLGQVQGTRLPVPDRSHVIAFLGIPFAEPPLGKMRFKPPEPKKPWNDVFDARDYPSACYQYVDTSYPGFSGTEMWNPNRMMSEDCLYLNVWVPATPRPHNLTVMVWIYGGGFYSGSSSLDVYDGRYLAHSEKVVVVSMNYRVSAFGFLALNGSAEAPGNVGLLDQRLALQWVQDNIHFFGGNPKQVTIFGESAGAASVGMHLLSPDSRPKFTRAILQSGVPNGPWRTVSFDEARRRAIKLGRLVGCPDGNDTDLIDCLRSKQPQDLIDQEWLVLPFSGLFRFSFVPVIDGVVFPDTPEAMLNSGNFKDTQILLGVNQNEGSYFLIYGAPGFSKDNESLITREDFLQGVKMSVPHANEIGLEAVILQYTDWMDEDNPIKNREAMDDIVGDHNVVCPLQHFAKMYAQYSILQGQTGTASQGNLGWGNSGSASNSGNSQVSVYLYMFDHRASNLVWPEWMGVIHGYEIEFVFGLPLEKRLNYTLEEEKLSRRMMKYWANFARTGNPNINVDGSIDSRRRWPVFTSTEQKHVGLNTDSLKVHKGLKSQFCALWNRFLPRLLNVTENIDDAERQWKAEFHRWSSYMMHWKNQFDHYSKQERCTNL
condition_set: c = 10 µM; mean ± SE
Short version: Grade of inhibition in% AChE at least 40% is Criterion met, less is Criterion not met.

- compound: "CC(=O)O[C@H]1CC[C@]2(C)[C@H]3CC[C@@H]4[C@H]5[C@H](C(C)=O)CC[C@]5(C(=O)NCCN)CC[C@@]4(C)[C@]3(C)CC[C@H]2C1(C)C"
  cat: "Criterion met"
- compound: "CC(=O)[C@@H]1CC[C@]2(C(=O)NCCN3CCCCC3)CC[C@]3(C)[C@H](CC[C@@H]4[C@@]5(C)CC[C@H](O)C(C)(C)[C@@H]5CC[C@]43C)[C@@H]12"
  cat: "Criterion met"
- compound: "CC(=O)OC1CC2(C)C(CCC3(C)C2CC=C2C4CC(C)(C)CCC4(C(=O)NCCN)CCC23C)C(C)(C)C1OC(C)=O (stereo not shown)"
  cat: "Criterion not met"
- compound: "CC(=O)O[C@H]1CC[C@@]2(C)C(CC[C@]3(C)C2CC=C2C4[C@@H](C)[C@H](C)CC[C@]4(C(=O)NCCN4CCCC4)CC[C@]23C)C1(C)C (stereo partly shown)"
  cat: "Criterion not met"
- compound: "CC1(C)CCC2(C(=O)NCCN3CCCC3)CCC3(C)C(=CCC4C5(C)CCC(O)C(C)(C)C5CCC43C)C2C1 (stereo not shown)"
  cat: "Criterion not met"
- compound: "C=C(C)C1CC[C@]2(C(=O)NCCN3CCCC3)CC[C@]3(C)C(CCC4[C@@]5(C)CC[C@H](OC(C)=O)C(C)(C)C5CC[C@]43C)C12 (stereo partly shown)"
  cat: "Criterion met"
